Exercise: for every item that follows, state its recorded self-cleavage.
B1: Twister Ribozyme (parent)
chain: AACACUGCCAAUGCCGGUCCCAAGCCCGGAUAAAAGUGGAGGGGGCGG

# Variants of: B1
# PROTOCOL: self-cleavage, relative activity (ratio to wild type); higher = more cleavage; co-transcriptional
Please reply with the number alone, leaving off any unit.

Returns the measured self-cleavage for the input variant. Input: `AACACUGCCAAUGCCGGUCCCAAGCCCGGCUAAAAGUGGAGGGGGCGC` 0.933

Thanks! And `AACUCUGCCAAUGCCGGACCCAAGCCCGGAUAAAAGUGGAGGGGGCGG` ? 0.0531

Thanks! And `AACACUGCAAAUGCCGGUCCCAAGCCCGGAUAUAAGUGGAGGGGGCGG` ? 0.638

Thanks! And `AACACUGCCAAUGCCGGUCCCGAGCCCGGAUAAAAGGGGAGGGGGCGG` ? 0.0844

Thanks! And `AACACUGCGAAUGCCGGUCCCAAGCCCGGAUAAAUGUGGAGGGGGCGG` ? 0.695

Thanks! And `AACACUGCCAAUGCCGGUCCCAAGCCCGGAUAAAAGUGGAGUGGGUGG` ? 0.383

Thanks! And `AACACUUCCAAUGCCGGUCCCAAGCCCGGAUAAAAGUGGAGUGGGCGG` ? 0.0886

Thanks! And `AACACUGCCAAUGUCGGUCCCAAGCCCGGAUAAAAGUGGACGGGGCGG` ? 0.343

Thanks! And `AACACUGCGAAUGCCGGGCCCAAGCCCGGAUAAAAGUGGAGGGGGCGG` ? 0.0467

Thanks! And `AACACUGCCAAUGCCGGUCCCAAGCCCGGAAAAAAGUGGAGGAGGCGG` ? 0.23

Thanks! And `AACACUGCCAAAGCCGGUCCCAAGCCCGGAUAAAAGUGGAGGUGGCGG` ? 0.477

Thanks! And `AACACUGCCAAGGCCUGUCCCAAGCCCGGAUAAAAGUGGAGGGGGCGG` ? 0.937

Thanks! And `AACACGGCCAAUGCCGGUCCCAAGCCCGGAUAAAAGUGGAGGGGCCGG` ? 0.104

Thanks! And `AACACUGCCCAUGCCGGUCCCAAGCCCGGAUAAAAGUAGAGGGGGCGG` ? 0.947

Thanks! And `AACACUGCCAAUGCAGGUCCCAAGCCCGGAUAAAAGUGAAGGGGGCGG` ? 0.156

Thanks! And `AACACUGCCUAUCCCGGUCCCAAGCCCGGAUAAAAGUGGAGGGGGCGG` ? 0.211

Thanks! And `AACACUGCCAAUGCCGGUCGCAAGCCCGGAUAAAAGUGGAGGGGGCCG` ? 0.133

Thanks! And `AUCACUGCCAAUGCCGGUCCCAAGCCCGGAUAAAAUUGGAGGGGGCGG` ? 0.113

Thanks! And `AACACUGCCAAUGCCGGUCCCAAGCCCGGGUAAAAGUGAAGGGGGCGG` ? 0.582

Thanks! And `AACACUUCCAAUGCCUGUCCCAAGCCCGGAUAAAAGUGGAGGGGGCGG` ? 0.0559

Thanks! And `AAGACUGCCAAUGCCGGUCCCAAGCCUGGAUAAAAGUGGAGGGGGCGG` ? 0.327

Thanks! And `AACACUGCCAAUGCCGGUCCCAAGCCCGGAUAGAAGUGGAGGGGGCCG` ? 0.394

Thanks! And `AACACUGCCAAUGCCGGGCCCAAGCCCGGAUAAAAGUGGAGCGGGCGG` ? 0.0775

Thanks! And `AACACUGCCAAUGCCGCUCCCAAGACCGGAUAAAAGUGGAGGGGGCGG` ? 0.0882

Thanks! And `AACACUGUCAAUGUCGGUCCCAAGCCCGGAUAAAAGUGGAGGGGGCGG` ? 0.791

Thanks! And `AACACUGCCAAUGCCGGUCCCAAGCCCGGAUAAAAUUGGAGGGGGCGG` ? 0.479

Thanks! And `AACACUGCCAAUGUCGGUCCCAGGCCCGGAUAAAAGUGGAGGGGGCGG` ? 0.666

Thanks! And `AACAGUGCCAAUGCCGGUCCCAAGCACGGAUAAAAGUGGAGGGGGCGG` ? 0.126

Thanks! And `AACACUGCCAAUACCCGUCCCAAGCCCGGAUAAAAGUGGAGGGGGCGG` ? 0.106

Thanks! And `AACACUGCGAAUGCCGGACCCAAGCCCGGAUAAAAGUGGAGGGGGCGG` ? 0.108

Thanks! And `AACACUGCCAAUGCCGGUCCCAAGCCCGGGUAAAAGUGGCGGGGGCGG` ? 0.215

Thanks! And `AACACUGCCAAUGCCGGUCCCAGGCCCGGAUGAAAGUGGAGGGGGCGG` ? 0.402

Thanks! And `AACACUGCCAAUGCCGGUCCCAAGCCCCGAUAAAUGUGGAGGGGGCGG` ? 0.806

Thanks! And `AACACUGCCAAUGCCGGUCCCAAGACCGGGUAAAAGUGGAGGGGGCGG` ? 0.233

Thanks! And `AACACGGCCAAUGCCAGUCCCAAGCCCGGAUAAAAGUGGAGGGGGCGG` ? 0.226

Thanks! And `AACACUGCCAACUCCGGUCCCAAGCCCGGAUAAAAGUGGAGGGGGCGG` ? 0.659

Thanks! And `AACACUGCCAAUGCCGGUCCCAACCCCGGAUAAAAGUGAAGGGGGCGG` ? 0.0888

Thanks! And `AACACUGCCAAUGCCGGUCCCAAGCCGGGAUAAAACUGGAGGGGGCGG` ? 0.0945

Thanks! And `AACACUGCCAAUGCCGGUCCCAAGUCCGGAUAAAAGUGGAGGGGGCGU` ? 0.813

Thanks! And `AACACUGCCAAUGCCGGUUCCAACCCCGGAUAAAAGUGGAGGGGGCGG` ? 0.126

Thanks! And `AACACUGCCAAUGCCGGUCCCAUGCCCGGAUAAAAGUGGAGGGGGCCG` ? 0.213

Thanks! And `AACACUGCAAAUGCCGGUCCCAAGCCCGGAUAAAACUGGAGGGGGCGG` ? 0.107

Thanks! And `AACACUGCCAAUUCCGGUCCCAAGCCCGGAUAAAACUGGAGGGGGCGG` ? 0.0949

Thanks! And `AACACUGCCAAUGCCGGUGCCAAGCCCGGAUAUAAGUGGAGGGGGCGG` ? 0.187

Thanks! And `AGCACUGCCAAUGCCGGUCCCAAGCCCGGAUAAUAGUGGAGGGGGCGG` ? 0.166

Thanks! And `AACUCUGCCAAUGCCGGUCCCAAGUCCGGAUAAAAGUGGAGGGGGCGG` ? 0.0507

Thanks! And `AACACUGGCAAUGCCGGUCCCAAGCCCGGAUAAAAGUGGAGGGCGCGG` ? 0.177

Thanks! And `AACACUGCCAAUGCCUGUCCCAAGCCCAGAUAAAAGUGGAGGGGGCGG` ? 0.641

Thanks! And `AAGACUGCCAAUGCCGGUCCCAAGCACGGAUAAAAGUGGAGGGGGCGG` ? 0.121

Thanks! And `AACACUGCCAAUGCCGAUCCCAAGCCCGGAUAAGAGUGGAGGGGGCGG` ? 0.211

Thanks! And `AACACUGCCAAUGCUGGUUCCAAGCCCGGAUAAAAGUGGAGGGGGCGG` ? 0.902

Thanks! And `AACACUGCUAAUGCCGGUCCCAAGCCCGGAUAAAAGUCGAGGGGGCGG` ? 0.509

Thanks! And `AACGCUGCCAAUGCCGGUCCCAAGCCCGGAUAAAAAUGGAGGGGGCGG` ? 0.385

Thanks! And `AACACUGACAAUGCCGGUCCCAAGCCCGGAUGAAAGUGGAGGGGGCGG` ? 0.331

Thanks! And `AACACUGCAAAUGCCGGUCCCAAGCCCUGAUAAAAGUGGAGGGGGCGG` ? 0.53

Thanks! And `AACACUGCCAAUGCCGGUCCAAAGCCCGGAUCAAAGUGGAGGGGGCGG` ? 0.169

Thanks! And `AACACUGCCAAUGCCGGUCCCAAGCCCGGAUAAAAGGGGAGGGGGCUG` ? 0.724

Thanks! And `AACACGGCCAAUGCCGGACCCAAGCCCGGAUAAAAGUGGAGGGGGCGG` ? 0.0684

Thanks! And `AGCACUGCCAAUGCCGGUCCCAAGCCCGGAUAUAAGUGGAGGGGGCGG` ? 0.401

Thanks! And `AACACUGCCAAUGCCGGUCCCAAGCUCGGAUAAAAGUGGAGGGGGUGG` ? 0.519

Thanks! And `AACACUGCCAAUGCCGGUCCCAAGCCCGGAUAAAAGUUUAGGGGGCGG` ? 0.0892

Thanks! And `AACACUGCCAAGGCCGGUCCCAAGCCCGGAUAAAAGUGGAGGGGGCAG` ? 0.772

Thanks! And `AACACUGCCAAUGCCGGUCCCAAGCCCGGAUAAAAGUGCAGGGGGCGU` ? 0.198

Thanks! And `AACACUGCCAAUGCCGGUCCCAAGCCCGGAUAAAAGUGGAGGCGCCGG` ? 0.267

Thanks! And `AACACUGCCAAUGCCGGUCCCAAGCCCGGAAAAAAGUGGAGGCGGCGG` ? 0.168

Thanks! And `AACACUGCCAAUGCCCGUCACAAGCCCGGAUAAAAGUGGAGGGGGCGG` ? 0.0672

Thanks! And `AACACUGCCAAUGCCGGUCCCAAGCCCGGAUAAAAGUGUAGGGGGGGG` ? 0.172

Thanks! And `AACACUGCCAAUGCCGGUCCCAACCCCGGAUAAAAGUGGUGGGGGCGG` ? 0.0978

Thanks! And `AACACUGCCAAUGCCGGUCCCAAGCGCGGAUAAAAGUGGAGGGGGGGG` ? 0.218

Thanks! And `AACACUCCCAAUGCCGGUCCCAAGCCUGGAUAAAAGUGGAGGGGGCGG` ? 0.0315

Thanks! And `AACACUGCCUAUGCCGGUCCCAAGCCCGGAUAAAAGUGGAGGGGGCGA` ? 0.959

Thanks! And `AACACUGCCAAUGCCGGUCCCAAGGCCGGAUAAAAGUGUAGGGGGCGG` ? 0.121

Thanks! And `AACACUGCCAAUGCCGGUCCCAAGCCCGGACGAAAGUGGAGGGGGCGG` ? 0.997

Thanks! And `AACACUGCCAAUGCCCGUCGCAAGCCCGGAUAAAAGUGGAGGGGGCGG` ? 0.104

Thanks! And `AAAACUGCCAAUGCCGGUCCCAAGCCCGAAUAAAAGUGGAGGGGGCGG` ? 0.232

Thanks! And `CACACUGCCAAUGCCGGUCCCAAGCCCGGAUAAAAGUGGAGGGGGGGG` ? 0.181

Thanks! And `AACACUGCCAAUGCCGGUCCCAAGCCCGGAUAAAAGUGGAGGACGCGG` ? 0.465

Thanks! And `AACACUGCCAAUGCCGGUCCCAAUCCCGGAUAAAAGUGGAGGGGACGG` ? 0.0796

Thanks! And `AACACUGCCAAUGCCGGUCCCAAGCCCGGAUAAAAGGGGAGGGGGCGC` ? 0.843

Thanks! And `AACACUGCCAAUGCCGGUCCCAAGCCCGGAUCAAAGUGGAGGGGCCGG` ? 0.546

Thanks! And `AACACUGCCAAUGCCGUUCCCAAGCGCGGAUAAAAGUGGAGGGGGCGG` ? 0.637

Thanks! And `AACACUGCCAAUGCCGGUUCCAAGCCCGGUUAAAAGUGGAGGGGGCGG` ? 0.82

Thanks! And `AACACUGCCAAUGCCGGUCACAAGCCCGGGUAAAAGUGGAGGGGGCGG` ? 0.114

Thanks! And `AACACUGCCAAUGACGGUCCCAAGCCCGGAUAAAUGUGGAGGGGGCGG` ? 0.789

Thanks! And `AACACUGCCAAUGCCGGUCCCAAGCCCGGAUUAAAGCGGAGGGGGCGG` ? 0.669

Thanks! And `AACACUGCCAAUGCCGGCCCCAAGCCCGGAUAAACGUGGAGGGGGCGG` ? 0.641

Thanks! And `AACACUGCCAAUGCCGGUCCCAAGCCCGGAUAGAAGUGGAAGGGGCGG` ? 0.453

Thanks! And `AACACUGCCAAUGCCGGUCCCAAGCCCGGAUAAAAAUGCAGGGGGCGG` ? 0.115

Thanks! And `AUCACUGCCAAUGCCGGUCCCAAGCCCGGAUAAAGGUGGAGGGGGCGG` ? 0.207

Thanks! And `AACACUGCCAAAGCCGGUGCCAAGCCCGGAUAAAAGUGGAGGGGGCGG` ? 0.614

Thanks! And `AACACUGCCAAUGCCGGUCCCAAGCCGGGAUUAAAGUGGAGGGGGCGG` ? 0.115
